Provenance of the data: patent US12110289B2

PROCEDURE_DETAILS: Human hepatocyte clearance study
Assay type: in vitro ADME
RUN_CONDITIONS: human, pooled cryopreserved human hepatocytes (suspension); working cell density 2 × 10^6 viable cells/mL; read-out: Human In vitro Clint (μl/min/10^6 cells)

COMPOUND	hepatocyte CLint at 1 µM [µL/min/1e6 cells]
C=CC(=O)N1C[C@H](C)N(c2nc(=O)n(-c3c(C4CC4)ncnc3C3CC3)c3nc(-c4c(O)cccc4F)c(Cl)cc23)C[C@H]1C [Compound 127]	4.4
C=CC(=O)N1CCN(c2nc(=O)n(-c3c(C4CC4)ncnc3C3CC3)c3nc(-c4c(N)cccc4F)c(Cl)cc23)[C@@H](C)C1 [Compound 124]	8.5
C=CC(=O)N1CCN(c2nc(=O)n(-c3c(C4CC4)ncnc3C3CC3)c3nc(-c4c(O)cccc4F)c(F)cc23)[C@@H](C)C1 [Compound 40]	12.7

---

# half-life at 1 µM per record follows
PROCEDURE_DETAILS: Human hepatocyte clearance study
Type: in vitro ADME
RUN_CONDITIONS: human, pooled cryopreserved human hepatocytes (suspension); working cell density 2 × 10^6 viable cells/mL; read-out: Human In vitro T1/2

COMPOUND	VALUE_UNIT	half-life at 1 µM
C=CC(=O)N1C[C@H](C)N(c2nc(=O)n(-c3c(C4CC4)ncnc3C3CC3)c3nc(-c4c(O)cccc4F)c(Cl)cc23)C[C@H]1C	h	2.64
C=CC(=O)N1C[C@H](C)N(c2nc(=O)n(-c3c(C4CC4)ncnc3C3CC3)c3nc(-c4c(N)cccc4F)c(Cl)cc23)C[C@H]1C	h	1.73
C=CC(=O)N1C[C@H](C)N(c2nc(=O)n(-c3c(C4CC4)ncnc3C3CC3)c3nc(-c4ccccc4F)c(Cl)cc23)C[C@H]1C	h	1.12
C=CC(=O)N1C[C@H](C)N(c2nc(=O)n(-c3c(C4CC4)ncnc3C3CC3)c3nc(-c4c(N)cccc4F)c(F)cc23)C[C@H]1C	h	2.87
C=CC(=O)N1CCN(c2nc(=O)n(-c3c(C4CC4)ncnc3C3CC3)c3nc(-c4c(O)cccc4F)c(Cl)cc23)[C@@H](C)C1	h	0.8
C=CC(=O)N1CCN(c2nc(=O)n(-c3c(C4CC4)ncnc3C3CC3)c3nc(-c4c(N)cccc4F)c(Cl)cc23)[C@@H](C)C1	h	1.35
C=CC(=O)N1C[C@H](C)N(c2nc(=O)n(-c3c(F)cc4c(ncn4C)c3C(C)C)c3nc(-c4c(N)cccc4F)c(F)cc23)C[C@H]1C (atropisomer, axis not shown)	h	11.5
C=CC(=O)N1CCN(c2nc(=O)n(-c3c(C4CC4)ncnc3C3CC3)c3nc(-c4c(O)cccc4F)c(F)cc23)[C@@H](C)C1	h	0.91
C=CC(=O)N1CCN(c2nc(=O)n(-c3c(C4CC4)ncnc3C3CC3)c3nc(-c4c(N)cccc4F)c(F)cc23)[C@@H](C)C1	h	1.41

---

Tested on: Lung cancer cell line NCI-H358 containing KRas G12C mutation
PROCEDURE_DETAILS: Assay for cell proliferation (Cell-titer Glo, 5 days)
Assay type: cell-based, human
RUN_CONDITIONS: Homo sapiens, NCI-H358, 120 h, NCI-H358, 5 days, Cell-titer Glo; read-out: IC50 (nM), Inhibition of NCI-H358 Cell Proliferation

MOLECULE	VALUE_RELATION_SIGN	IC50 [nM]
C=CC(=O)N1C[C@H](C)N(c2nc(=O)n(-c3c(C(C)C)nc(C(=O)O)nc3C(C)C)c3nc(-c4c(N)cccc4F)c(F)cc23)C[C@H]1C	>	3000
C=CC(=O)N1CCN(c2nc(=O)n(-c3c(C4CC4)ncnc3C3CC3)c3nc(-c4ccccc4F)c(F)cc23)[C@@H](C)C1	=	38.2
C=CC(=O)N1CCN(c2nc(=O)n(-c3c(C4CC4)nc(N4CCN(C)CC4)nc3C3CC3)c3nc(-c4ccccc4F)c(Cl)cc23)[C@@H](C)C1	=	7.8

---

Collected Cmax values appear next to each entry.
PROCEDURE_DETAILS: Rat PK study, single i.g. dose
Format: in vivo
RUN_CONDITIONS: female, SD, plasma, PO, 10 mg/kg, read-out: Rat PO (10 mpk) Cmax
MEASUREMENT_LABEL: Cmax (nM)

MOLECULE	ENDPOINT_RESULT
C=CC(=O)N1C[C@H](C)N(c2nc(=O)n(-c3c(C4CC4)ncnc3C3CC3)c3nc(-c4c(N)cccc4F)c(Cl)cc23)C[C@H]1C	1060
C=CC(=O)N1C[C@H](C)N(c2nc(=O)n(-c3c(C4CC4)ncnc3C3CC3)c3nc(-c4c(N)cccc4F)c(F)cc23)C[C@H]1C	1380

---

Listed here are compounds together with their documented bioavailability.
PROCEDURE_DETAILS: Rat PK study, single i.g. dose
Type: in vivo
RUN_CONDITIONS: female, SD, plasma, PO, 10 mg/kg, read-out: Rat PO (10 mpk) F %

MOLECULE	bioavailability [%]
C=CC(=O)N1C[C@H](C)N(c2nc(=O)n(-c3c(C4CC4)ncnc3C3CC3)c3nc(-c4c(N)cccc4F)c(F)cc23)C[C@H]1C	71
C=CC(=O)N1C[C@H](C)N(c2nc(=O)n(-c3c(C4CC4)ncnc3C3CC3)c3nc(-c4c(N)cccc4F)c(Cl)cc23)C[C@H]1C	54

---

PROCEDURE_DETAILS: Human hepatocyte clearance study
Type: in vitro ADME
RUN_CONDITIONS: human, pooled cryopreserved human hepatocytes (suspension); working cell density 2 × 10^6 viable cells/mL; read-out: Human Scale-up Clint
MEASUREMENT_LABEL: CLint scaled at 1 µM

COMPOUND	ENDPOINT_RESULT
C=CC(=O)N1C[C@H](C)N(c2nc(=O)n(-c3c(C4CC4)ncnc3C3CC3)c3nc(-c4c(N)cccc4F)c(Cl)cc23)C[C@H]1C [Compound 126]	17 mL/min/kg
C=CC(=O)N1CCN(c2nc(=O)n(-c3c(C4CC4)ncnc3C3CC3)c3nc(-c4c(O)cccc4F)c(Cl)cc23)[C@@H](C)C1 [Compound 125]	36.8 mL/min/kg
C=CC(=O)N1CCN(c2nc(=O)n(-c3c(C4CC4)ncnc3C3CC3)c3nc(-c4c(O)cccc4F)c(F)cc23)[C@@H](C)C1 [Compound 40]	32.3 mL/min/kg

---

System: pooled human hepatocytes
PROCEDURE_DETAILS: Human hepatocyte clearance study
Type: in vitro ADME
RUN_CONDITIONS: working cell density 0.5 × 10^6 viable cells/mL
MEASUREMENT_LABEL: Human Hepatocyte Remaining Percentage @ 120 min (%)

MOLECULE	VALUE_UNIT	ENDPOINT_RESULT
C=CC(=O)N1CCN(c2nc(=O)n(-c3ccc4c(ncn4C)c3C(C)C)c3nc(-c4ccccc4F)c(Cl)cc23)[C@@H](C)C1	%	41.2
C=CC(=O)N1C[C@H](C)N(c2nc(=O)n(-c3c(C4CC4)nc(C)nc3C3CC3)c3nc(-c4c(O)cccc4F)c(F)cc23)C[C@H]1C	%	65.3
C=CC(=O)N1CCN(c2nc(=O)n(-c3c(C4CC4)nc(C)nc3C3CC3)c3nc(-c4c(O)cccc4F)c(F)cc23)[C@@H](C)C1	%	61.1
C=CC(=O)N1CCN(c2nc(=O)n(-c3c(C4CC4)nc(C)nc3C3CC3)c3nc(-c4c(N)cccc4F)c(F)cc23)[C@@H](C)C1	%	60.8
C=CC(=O)N1CCN(c2nc(=O)n(-c3c(C4CC4)nc(OCCN(C)C)nc3C3CC3)c3nc(-c4ccccc4F)c(Cl)cc23)[C@@H](C)C1	%	74.3
C=CC(=O)N1CCN(c2nc(=O)n(-c3c(C(C)C)nc(OCCN(C)C)nc3C(C)C)c3nc(-c4c(N)cccc4F)c(Cl)cc23)[C@@H](C)C1	%	82.4

---

Below, each entry is listed alongside its reported log10 hepatocyte CLint at 1 µM.
PROCEDURE_DETAILS: Human hepatocyte clearance study
Format: in vitro ADME
RUN_CONDITIONS: human, pooled cryopreserved human hepatocytes (suspension); working cell density 0.5 × 10^6 viable cells/mL; read-out: Human In vitro Clint (μl/min/10^6 cells)
MEASUREMENT_LABEL: log10 hepatocyte CLint at 1 µM (log10 of the value in µL/min/1e6 cells)

MOLECULE	ENDPOINT_RESULT
C=CC(=O)N1C[C@H](C)N(c2nc(=O)n(-c3c(C(C)C)nc(OCCN(C)C)nc3C(C)C)c3nc(-c4ccccc4F)c(Cl)cc23)C[C@H]1C	0.77
C=CC(=O)N1CCN(c2nc(=O)n(-c3c(C(C)C)nc(OC)nc3C(C)C)c3nc(-c4ccccc4F)c(Cl)cc23)[C@@H](C)C1	1.80
C=CC(=O)N1CCN(c2nc(=O)n(-c3c(C(C)C)nc(N)nc3C(C)C)c3nc(-c4ccccc4F)c(Cl)cc23)[C@@H](C)C1	1.29
C=CC(=O)N1CCN(c2nc(=O)n(-c3c(C4CC4)nc(OCCN(C)C)nc3C3CC3)c3nc(-c4ccccc4F)c(F)cc23)[C@@H](C)C1	0.26
C=CC(=O)N1CCN(c2nc(=O)n(-c3c(C4CC4)nc(C)nc3C3CC3)c3nc(-c4c(O)cccc4F)c(F)cc23)[C@@H](C)C1	0.92
C=CC(=O)N1CCN(c2nc(=O)n(-c3c(C(C)C)nc(OCCN(C)C)nc3C(C)C)c3nc(-c4c(O)cccc4F)c(Cl)cc23)[C@@H](C)C1	0.46
C=CC(=O)N1CCN(c2nc(=O)n(-c3c(C4CC4)nc(C)nc3C3CC3)c3nc(-c4c(N)cccc4F)c(F)cc23)[C@@H](C)C1	0.93
C=CC(=O)N1CCN(c2nc(=O)n(-c3ccc4c(ncn4C)c3C(C)C)c3nc(-c4ccccc4F)c(Cl)cc23)[C@@H](C)C1	1.12
C=CC(=O)N1CCN(c2nc(=O)n(-c3c(C(C)C)nc(N4CCNCC4)nc3C(C)C)c3nc(-c4ccccc4F)c(Cl)cc23)[C@@H](C)C1	0.65
